Test system: HepG2 cell line
experimental-details: In vitro toxicity study on HepG2 cell line (resazurin, viability and IC50)
Format: cell-based, human
experimental-parameters: HepG2 cells, 400 μM lipid, 48 h post-treatment, resazurin, relative to ethanol vehicle controls
This listing pairs compounds with measured Viability (%) at different lipid concentrations, mean.
Please give a number only; it is taken to be in %.

Observe how each entry below is paired with its result.
compound: CCCCC/C=C\C/C=C\CCCCCCCCOC(CCCCCCC/C=C\C/C=C\CCCCC)O[Si](C)(C)OCCCCCCN(C)CCCCO (stereo not drawn)
recorded-number: 73.6

compound: CCCCCCCC/C=C\CCCCCCCCOC(=O)C(C)(C)CC(OCCCCCCCC/C=C\CCCCCCCC)O[Si](C)(C)OCCCCCCN1CCCCC1CO (stereo not drawn)
recorded-number: 99.5

compound: CCCCC/C=C\C/C=C\CCCCCCCCOC(CCCCCCC/C=C\C/C=C\CCCCC)O[Si](C)(C)OCCCCCCN1CCCCC1CO (stereo not drawn)
recorded-number: 80.3

compound: CCCCC/C=C\C/C=C\CCCCCCCCOC(CCCCCN(C)CC(O)CO)O[Si](C)(C)OCCCCCCCC/C=C\C/C=C\CCCCC (stereo not drawn)
recorded-number: 86.0

compound: CCCCCCCC/C=C\CCCCCCCCOC(=O)C(C)(C)CCC(OCCCCCCCC/C=C\CCCCCCCC)O[Si](C)(C)OCCCCCCN1CCOCC1 (stereo not drawn)
recorded-number: 103.6

[in] Value lookup for Viability (%) at different lipid concentrations, mean; key = CCCCC/C=C\C/C=C\CCCCCCCCOC(CCCCCCC/C=C\C/C=C\CCCCC)O[Si](C)(C)OCCCCCCN(C)[C@H](CO)Cc1ccccc1 (stereo partly drawn)
[out] 101.1
